B1: LRRC45 (parent)
chain: DLSAANEKNLLLQNQVDELERKFR

variants of: B1; test: protein stability index of a GFP-peptide fusion (GPS, HEK-293T) (PSI 1-6); higher = more stable; details: c terminus: a fixed tail appended;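 note: lentivirally expressed fusions sorted by FACS into six bins by GFP to DsRed ratio, PSI derived from sequencing read proportions per bin multiplied by bin number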
assay.endpoint: protein stability index
Reply with just the number.

Q13W :: 3.3
F23I :: 3.6
K22A :: 4.27
Q13E :: 4.71

Challenge: Requested read-out: protein stability index. Entry: R24S
Response given: 4.25

Challenge: Okay, and A5V ?
Response given: 3.95

Challenge: Okay, and Q15F ?
Response given: 2.32

Challenge: Okay, and L19Q ?
Response given: 3.99

Challenge: Okay, and L2R ?
Response given: 4.86

Challenge: Okay, and K22V ?
Response given: 3.27

Challenge: Okay, and L11T ?
Response given: 3.86

Challenge: Okay, and R21N ?
Response given: 4.47

Challenge: Okay, and L10S ?
Response given: 4.45

Challenge: Okay, and L2S ?
Response given: 4.86

Challenge: Okay, and A5T ?
Response given: 3.91

Challenge: Okay, and Q15E ?
Response given: 4.7

Challenge: Okay, and R21A ?
Response given: 4.09

Challenge: Okay, and L19M ?
Response given: 4.03

Challenge: Okay, and E7Q ?
Response given: 3.63

Challenge: Okay, and L10Q ?
Response given: 4.51

Challenge: Okay, and K8E ?
Response given: 4.56

Challenge: Okay, and L19S ?
Response given: 4.34

Challenge: Okay, and E7P ?
Response given: 4.31

Challenge: Okay, and L19A ?
Response given: 4.58

Challenge: Okay, and R21Y ?
Response given: 4.14
